Reference for the values: patent US12291519B2

target: human Gal-1 (hGal-1); experiment: Competitive binding assay: biotinylated hGal-1 binding to microplate-adsorbed asialofetuin (ASF); conditions: Activity on hGal-1; binding of biotinylated hGal-1 to ASF-coated plates; mean values
Sequence (P09382 2-135 limits assumed): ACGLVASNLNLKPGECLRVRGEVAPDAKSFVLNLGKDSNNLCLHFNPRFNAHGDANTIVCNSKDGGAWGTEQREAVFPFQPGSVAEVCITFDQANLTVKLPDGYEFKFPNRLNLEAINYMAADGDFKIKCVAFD
pIC50: −log10 of the molar value.
attributeMeasured: pIC50

Example entries and their recorded answers appear below.
- O=C(CO[C@@H]1[C@@H](n2cc(-c3cc(F)c(F)c(F)c3)nn2)[C@@H](O)[C@@H](CO)O[C@H]1C(=O)N(c1cc(Cl)cc(Cl)c1)[C@H]1CCCC[C@@H]1O)N1CC(O)C1: 6.75
- CO[C@@H]1[C@@H](n2cc(-c3cc(F)c(N4CCOCC4)c(F)c3)nn2)[C@@H](O)[C@@H](CO)O[C@H]1C(=O)N(c1cc(Cl)cc(Cl)c1)[C@H]1CCCC[C@@H]1O: 6.17

[P] CO[C@@H]1[C@@H](n2cc(-c3cc(F)cc(Cl)c3)nn2)[C@@H](O)[C@@H](CO)O[C@H]1C(=O)N(c1ccc(F)c(F)c1)[C@H]1CCCC[C@@H]1O
[Q] CO[C@@H]1[C@@H](n2cc(-c3cc(F)c(NCCCO)c(F)c3)nn2)[C@@H](O)[C@@H](CO)O[C@H]1C(=O)N(c1cc(Cl)cc(Cl)c1)[C@H]1CCCC[C@@H]1O
[R] CO[C@@H]1[C@@H](n2cc(-c3cc(F)c(F)c(F)c3)nn2)[C@@H](O)[C@@H](CO)O[C@H]1C(=O)N(Cc1sncc1Cl)[C@H]1CCCC[C@@H]1O
Would you mind ranking these compounds by ascending pIC50? I would appreciate it if you listed the labels in the requested order.
R, P, Q
